- Tested on: OVCAR-8 ovarian
- Assay explanation: NCI-60 one-dose screen, 48 h
- Recorded conditions: 10 µM unless noted
About 83,000 compounds went through this panel and 20% of them were active in at least one assay; those are over-represented in the sample as a whole. Activity calls are given as the source filed them. Rule for the calls: active = growth percent below 10; inactive = the rest.
The reply should be one of these categories: active, inactive

Example results:
C#Cc1ccc(NC(=O)c2ccc(/C=C/C(=O)c3nccn3C)cc2)c(F)c1 = inactive
CCN(CC)CCN1C(=O)c2c(c3c4cccnc4[nH]c3c3ccc4ccccc4c23)C1=O = inactive
COc1cc2c3c(n(CCCNC4CCCCC4)c(=O)c2cc1OC)-c1cc2c(cc1C3=O)OCO2 = active
O=C(Nc1cc(Cl)cc(Cl)c1)Nc1ccc2oc(=O)ccc2c1 = inactive
CS(=O)(=O)c1nccc(-c2c(-c3ccc(F)c(OCc4ccc(F)cc4)c3)nc3sccn23)n1 = inactive
N#Cc1c(-c2ccccc2)cc(-c2c[nH]c3ccccc23)nc1-c1c[nH]c2ccccc12 = inactive
O=C(Cn1cc(CN2C(=O)c3ccc([N+](=O)[O-])cc3C2=O)nn1)Nc1ccc(F)cc1Cl = inactive
CS(=O)(=O)c1ccc(-c2nn(-c3ccccc3)cc2/C=N/NC(=O)c2ccncc2)cc1 = inactive

Task: Dear all, I need the recorded test outcome for "O=C(CN1C(=O)CSC1=O)Nc1ccc(C(=O)/C=C/c2cc3ccccc3nc2Cl)cc1" , thank you.
Output: inactive

Task: Which outcome did this test record for the molecule "COc1cc2c3c(n(CCCNCC4CC4)c(=O)c2cc1OC)-c1cc2c(cc1C3=O)OCO2" ?
Output: active

====

- Test system: HOP-62 NSCLC
- Assay explanation: NCI-60 one-dose screen, 48 h
- Recorded conditions: 10 µM unless noted
About 83,000 compounds went through this panel and 20% of them were active in at least one assay; those are over-represented in the sample as a whole. The source made the active and inactive calls. How the source made its calls: active means growth percent below 10; inactive means the rest.
Would you mind answering with one of these outcomes? TRUE for active, FALSE for inactive

Example entries begin here.
CC1(C)CC[C@]2(C(=O)N3CCCNCC3)CC[C@]3(C)C(=CC[C@@H]4[C@@]5(C)CCC(=O)C(C)(C)[C@@H]5CC[C@]43C)[C@H]2C1 = FALSE
CC1(COc2ccc3ncc(C#Cc4cncc(C(=O)Nc5cc(C(C)(C)C)on5)c4)n3n2)COC1 = FALSE
Cn1cc(-c2nn3c(=O)cc(-c4ccccc4)nc3s2)c2cc(F)ccc21 = FALSE
CC(=O)NC(C)(C)C(=O)N1CCC[C@H]1C(=O)NC(C)(C)C(=O)N[C@@H](C)C(=O)NC(C)(C)C(=O)N[C@@H](C)C(=O)N[C@@H](CCC(N)=O)C(=O)NC(C)(C)C(=O)N[C@H](C(=O)NC(C)(C)C(=O)NCC(=O)N[C@@H](CC(C)C)C(=O)NC(C)(C)C(=O)N1CCC[C@H]1C(=O)N[C@H](C(=O)NC(C)(C)C(=O)NC(C)(C)C(=O)N[C@@H](CCC(N)=O)C(=O)N[C@@H](CCC(N)=O)C(=O)N[C@H](CO)Cc1ccccc1)C(C)C)C(C)C = FALSE
Cc1cc(F)cc(NS(=O)(=O)c2ccc(-c3cnc(C4CC4)o3)cc2)c1 = FALSE

Task: // outcome(item) with item = "CCN(CC)c1ccc2cc(C(=O)NCCOCCOCCOCCn3cc(CCC(=O)Nc4ccc(C(=O)c5ccc(NC(=O)OC(C)(C)C)cc5)cc4)nn3)c(=O)oc2c1"
Output: FALSE

Task: Could you kindly confirm the outcome this assay logged for "CS(=O)(=O)c1nccc(-c2c(-c3ccc(F)c(OCCc4ccc(F)cc4)c3)nc3sccn23)n1" ?
Output: FALSE

Task: Per the assay record, what outcome was assigned to "O=C(NCCCNc1cc(-c2cn(-c3ccccc3)nc2-c2cccc(O)c2)ccn1)Nc1cccc(C(F)(F)F)c1" ?
Output: FALSE

====

- System: EKVX NSCLC
- Assay explanation: NCI-60 one-dose screen, 48 h
- Recorded conditions: 10 µM unless noted
This is part of a sample that, as a whole, favours compounds with a hit. Of some 83,000 tested, about 20% had one in any assay. Activity calls are given as the source filed them. Rule for the calls: active = growth percent below 10; inactive = the rest.
Write down one outcome, taken from 1 (active), 0 (inactive)

Cc1cc(NS(=O)(=O)c2ccc(-c3cnc(C4CC4)o3)cc2)ccc1I = 0
Cc1cn(-c2cc(NC(=O)c3cncc(C#Cc4cnc5ccc(OCCCS(C)(=O)=O)nn45)c3)cc(C(F)(F)F)c2)cn1 = 0

Task: Which outcome was assigned to "Clc1ccc(-c2csc(Nc3cccc(Nc4csc(-c5ccc(Cl)cc5)n4)c3)n2)cc1" in this test?
Output: 0

Task: Recorded call for "CC[C@H](C)[C@H]1NC(=O)[C@@H]([C@H](O)C(C)C)NC(=O)[C@@H](C)N(C)C(=O)[C@H](C)N(C)C(=O)[C@H](CC(C)C)NC(=O)[C@H](CC(C)C)N(C)C(=O)[C@H](C)N(C)C1=O" ?
Output: 1

Task: Would you mind telling me which call this test gave "CS(=O)(=O)c1ccc2c(c1)c1c(n2Cc2ccc(Cl)cc2)CCCC1" ?
Output: 0

Task: Dear all, I need the recorded test outcome for "CN1CCN(Cc2ccc(NC(=O)c3cncc(C#Cc4cnc5ccc(NC6CCOCC6)nn45)c3)cc2C(F)(F)F)CC1" , thank you.
Output: 1

Task: Which outcome was assigned to "NC(=O)c1c(NC(=O)c2cccc(C(F)(F)F)c2F)sc2c1CCC(=O)C2" in this test?
Output: 0

Task: Record request — test call for "O=C1[C@@H]2Cc3c([nH]c4ccccc34)[C@H](c3c(Cl)cccc3Cl)N2C(=O)CN1C1CCN(Cc2c(F)cccc2F)CC1"
Output: 0

====

- System: HT29 colon
- Assay explanation: NCI-60 one-dose screen, 48 h
- Recorded conditions: 10 µM unless noted
About 83,000 compounds went through this panel and 20% of them were active in at least one assay; those are over-represented in the sample as a whole. Activity calls are given as the source filed them. The calls were made as follows: active = growth percent below 10; inactive = the rest.
The reply should be one of these categories: active, inactive

Examples with answers:
NC(=O)N1N=C(c2cc3ccccc3oc2=O)CC1c1cn(-c2ccccc2)nc1-c1ccc(Cl)cc1 (stereo not given) = inactive
COc1ccc(/C=N/Nc2nc(N/N=C/c3ccc(OC)cc3O)nc(N3CCOCC3)n2)c(O)c1 = inactive
CCCCCCCCCC[C@@H](C)[C@@H]1CC(=O)N[C@H]([C@@H](C)O)C(=O)N[C@@H](C)C(=O)N[C@H](C)C(=O)N[C@@H](CCC(N)=O)C(=O)N[C@H](Cc2ccc(O)cc2)C(=O)N[C@@H](C(C)CC)C(=O)O1 (stereo not given in full) = inactive
CCNCCCn1c2c(c3cc(OC)c(OC)cc3c1=O)C(=O)c1cc(OC)cnc1-2 = active

Task: Hi team, can someone confirm the assay call for CCN1C(=O)N(CC)C2SC(N/N=C/c3ccc(OC)cc3)=NC21 (stereo not given) ?
Output: inactive

====

- System: A549/ATCC NSCLC
- Assay explanation: NCI-60 one-dose screen, 48 h (100 = growth as untreated, 0 = no growth, -100 = all killed)
- Recorded conditions: 10 µM unless noted
The panel holds about 83,000 compounds, 20% with a hit somewhere; the sample as a whole holds those more often. Activity calls are given as the source filed them. How the source made its calls: active means growth percent below 10; inactive means the rest.
Endpoint name: growth

COc1ccc(C2C(C#N)=C(N)Oc3c2sc2ccc(C)cc32)cc1 (centres undefined) = 45.6% (inactive)
COc1ccc2oc3c4[nH]c5ccccc5c4c4c(c3c2c1)C(=O)N(O)C4=O = 108% (inactive)
CS(=O)(=O)c1ccc2c(c1)c1c(n2C(=O)c2ccc(Cl)cc2)CCCC1 = 50.6% (inactive)
COc1ccc(-c2nnc(SCc3ccc(O)c4ncccc34)o2)cc1 = 41.2% (inactive)
O=C1[C@@H]2Cc3c([nH]c4ccccc34)[C@H](c3c(Cl)cccc3Cl)N2C(=O)CN1C1CCN(Cc2c(F)cccc2F)CC1 = 92.3% (inactive)

Task: Determine from records and report growth for COC[C@@]1(C)CC[C@]2(C)CC[C@]3(C)C(=CC[C@@H]4[C@@]5(C)CCCNC(C)(C)[C@@H]5CC[C@]43C)C2C1 (some centres undefined)
Output: 55.7% (inactive)

Task: Note down growth recorded for CN1C(=O)N(C)C2Nn3c(s/c(=C\c4ccccn4)c3=O)=NC21 (centres undefined)
Output: 103% (inactive)

Task: Indicate its recorded growth; the compound in question is CCC(C)[C@H]1OC(=O)[C@H](C(C)C)N(C)C(=O)[C@@H](C(C)C)OC(=O)[C@H](C(C)C)N(C)C(=O)[C@@H](C(C)CC)OC(=O)[C@H](C(C)C)N(C)C1=O (some centres undefined)
Output: 12.9% (inactive)

Task: Consider the compound CCCC(=O)NC(c1cccnc1)c1ccc2c(C)ccnc2c1O (centres undefined) . State its measured growth.
Output: 16% (inactive)

====

- Tested on: SNB-75 CNS
- Assay explanation: NCI-60 one-dose screen, 48 h
- Recorded conditions: 10 µM unless noted
About 83,000 compounds went through this panel and 20% of them were active in at least one assay; those are over-represented in the sample as a whole. The source made the active and inactive calls. How the source made its calls: active means growth percent below 10; inactive means the rest.
Write down the outcome that applies. Available outcomes: 1 (yes) = active, 0 (no) = inactive

Cn1cc(-c2nnc(N)nc2-c2cn(C)c3ccc(F)cc23)c2cc(F)ccc21 = 0 (no)
C#C[C@]1(O)CC[C@H]2[C@@H]3CC=C4c5sc(Nc6ccc(OC)nc6)nc5CC[C@]4(C)[C@H]3CC[C@@]21C = 1 (yes)
CCOC(=O)c1ccc(N/C=C/C(=O)c2ccccc2)cc1 = 0 (no)
CC1(C)CC[C@]2(C(=O)N3CCCNCC3)CC[C@]3(C)C(=CC[C@@H]4[C@@]5(C)CCC(=O)C(C)(C)[C@@H]5CC[C@]43C)[C@H]2C1 = 0 (no)
O=C1Nc2cc(OC(F)(F)F)ccc2Oc2ccc(-c3ccnc(N4CC[C@H](O)C4)c3)cc21 = 1 (yes)

Task: Dear colleague, could you share the recorded outcome for C#CCOc1ccc(C(Nc2ccc(Cl)cc2)c2nnnn2C2CCCCC2)cc1 (stereo unspecified) when you have a moment?
Output: 0 (no)
